# ASSAY SYSTEM: RCL1 peptide/HLA-A*02:01 complex (recombinant) (human, UniProt P16213 21-119 (Pongo pygmaeus entry))
# TEST DESCRIPTION: SPR

- BINDER: "AS170036 VL1VH1-VLH98P (scFv) scFv: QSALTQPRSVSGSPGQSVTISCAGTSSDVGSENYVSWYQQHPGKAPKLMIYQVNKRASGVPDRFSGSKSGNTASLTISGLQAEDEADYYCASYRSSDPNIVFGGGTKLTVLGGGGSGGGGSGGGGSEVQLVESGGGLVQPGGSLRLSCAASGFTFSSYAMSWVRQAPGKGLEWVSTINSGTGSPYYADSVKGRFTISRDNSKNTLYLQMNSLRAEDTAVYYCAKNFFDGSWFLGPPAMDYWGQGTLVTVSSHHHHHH"
  binding result: "no binding"
- BINDER: "AS170036 VL1VH1-VHS57Q (scFv) scFv: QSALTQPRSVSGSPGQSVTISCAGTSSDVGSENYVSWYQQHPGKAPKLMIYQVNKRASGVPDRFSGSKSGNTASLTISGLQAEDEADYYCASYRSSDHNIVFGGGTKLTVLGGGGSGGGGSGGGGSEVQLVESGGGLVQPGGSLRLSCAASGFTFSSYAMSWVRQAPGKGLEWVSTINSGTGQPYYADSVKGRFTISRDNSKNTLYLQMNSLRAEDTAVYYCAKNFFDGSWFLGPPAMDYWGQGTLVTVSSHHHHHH"
  binding result: "no binding"
